Where do these numbers come from? They come from patent US12240849B2.

protocolText: Pharmacokinetic evaluation in mice
Type: in vivo, CD-1 mice (male)
testConditions: male, mouse, plasma, 10 mg/kg; CD-1 mice, oral administration 10 mpk; read-out: Integrated Concentration AUC
reportedMetric: AUC (µM·h)

(A) Cc1cc(Nc2cc(C)[nH]n2)nc(N2CCC3(CC2)OCCN(C(C)c2ccc(-n4cc(F)cn4)nc2)C3=O)n1 (centres unmarked)
(B) Cc1cc(Nc2cc(C)nc(C3CCC4(CC3)OCCN(C(C)c3ccc(-n5cc(F)cn5)nc3)C4=O)n2)[nH]n1 (single isomer, unassigned)
I'm curious, which of these has a smaller AUC number: A or B ? // return label of chosen record
A
(A: 27.7 µM·h, B: 49.6 µM·h)
